Values of pIC50 for glutaminase (GAC) (Homo sapiens), collected from a number of published sources:
pIC50: −log10 of the molar value.

>  <MOLECULE>
COc1ccc(CC(=O)Nc2nnc([C@@H]3CCCC[C@@H](c4nnc(NC(=O)Cc5ccc(OC)cc5)s4)C3)s2)cc1

>  <pIC50>
5.70 to 6.00

$$$$

# value of pIC50, glutaminase (GAC) (Homo sapiens), item "Cc1[nH]c2ccccc2c1CC(=O)Nc1nnc(CCCCc2nnc(NC(=O)Cc3c(C)[nH]c4ccccc34)s2)s1" = > 7.00

# value of pIC50, glutaminase (GAC) (Homo sapiens), item "O=C(Cc1cccc2[nH]ccc12)Nc1nnc([C@H]2CCC[C@H](c3nnc(NC(=O)Cc4cccc5[nH]ccc45)s3)C2)s1" = > 7.00

# value of pIC50, glutaminase (GAC) (Homo sapiens), item "CN1CCC(c2cccc(CC(=O)Nc3nnc([C@H]4CCC[C@H](c5nnc(NC(=O)Cc6cccc(C7CCN(C)CC7)c6)s5)C4)s3)c2)CC1" = > 7.00

# value of pIC50, glutaminase (GAC) (Homo sapiens), item "O=C(NCc1ccccc1)c1nnc(CCCCc2nnc(C(=O)NCc3ccccc3)s2)s1" = 6.30 to 7.00

# value of pIC50, glutaminase (GAC) (Homo sapiens), item "O=C(Cc1cccc(C2CCNCC2)c1)Nc1nnc([C@H]2CCC[C@H](c3nnc(NC(=O)Cc4cccc(C5CCNCC5)c4)s3)C2)s1" = > 7.00

---

pIC50: −log10 of the molar value.
Values of pIC50 for glutaminase (GAC) (Homo sapiens, UniProt O94925), collected from a number of published sources:

Answered cases to consult:
>  <COMPOUND>
O=C(Cc1ccc(Cl)cc1)Nc1nnc(CCCCc2nnc(NC(=O)Cc3ccc(Cl)cc3)s2)s1

>  <ASSAYED_TARGET>
glutaminase (GAC) (Homo sapiens, UniProt O94925)

>  <pIC50>
6.30 to 7.00

$$$$
>  <COMPOUND>
COc1cccnc1CC(=O)Nc1nnc([C@H]2CCC[C@H](c3nnc(NC(=O)Cc4ncccc4OC)s3)C2)s1 (racemic)

>  <ASSAYED_TARGET>
glutaminase (GAC) (Homo sapiens, UniProt O94925)

>  <pIC50>
> 7.00

$$$$
>  <COMPOUND>
O=C(Cc1ccccc1)Nc1cc(CCCCc2cc(NC(=O)Cc3ccccc3)on2)no1

>  <ASSAYED_TARGET>
glutaminase (GAC) (Homo sapiens, UniProt O94925)

>  <pIC50>
5.00 to 6.00

$$$$
>  <COMPOUND>
CC(C)C(=O)Nc1nnc([C@H]2CCC[C@H](c3nnc(NC(=O)C(C)C)s3)C2)s1 (single isomer, unassigned)

>  <ASSAYED_TARGET>
glutaminase (GAC) (Homo sapiens, UniProt O94925)

>  <pIC50>
6.30 to 7.00

$$$$
>  <COMPOUND>
COc1cccc(CCC(=O)Nc2nnc(CCCCc3nnc(NC(=O)CCc4cccc(OC)c4)s3)s2)c1

>  <ASSAYED_TARGET>
glutaminase (GAC) (Homo sapiens, UniProt O94925)

>  <pIC50>
> 7.00

$$$$
>  <COMPOUND>
Cn1cc(CC(=O)Nc2nnc([C@H]3CCC[C@H](c4nnc(NC(=O)Cc5cn(C)c6ccccc56)s4)C3)s2)c2ccccc21

>  <ASSAYED_TARGET>
glutaminase (GAC) (Homo sapiens, UniProt O94925)

>  <pIC50>
6.30 to 7.00

$$$$

# next compound below
# value of pIC50, glutaminase (GAC) (Homo sapiens, UniProt O94925), item "O=C(Cc1cccnc1)Nc1nnc(CCS(=O)(=O)CCc2nnc(NC(=O)Cc3cccnc3)s2)s1" = > 7.00

---

pIC50: −log10 of the molar value.
Values of pIC50 for glutaminase (GAC) (Homo sapiens, UniProt O94925), collected from a number of published sources:

# value of pIC50, glutaminase (GAC) (Homo sapiens, UniProt O94925), item "N#Cc1cccc(CC(=O)Nc2nnc([C@H]3CCC[C@H](c4nnc(NC(=O)Cc5cccc(C#N)n5)s4)C3)s2)n1" = > 7.00

# value of pIC50, glutaminase (GAC) (Homo sapiens, UniProt O94925), item "O=C(Cc1cccnc1)Nc1nnc(CCCCc2nnc(NC(=O)Cc3cccnc3)s2)s1" = > 7.00

# value of pIC50, glutaminase (GAC) (Homo sapiens, UniProt O94925), item "O=C(Cc1cccc(N2CCNCC2)c1)Nc1nnc([C@H]2CCC[C@H](c3nnc(NC(=O)Cc4cccc(N5CCNCC5)c4)s3)C2)s1" = > 7.00

# value of pIC50, glutaminase (GAC) (Homo sapiens, UniProt O94925), item O=C(Cc1ccccn1)Nc1nnc(CC2CCC(Cc3nnc(NC(=O)Cc4ccccn4)s3)CC2)s1 (stereo not shown) = 6.00 to 6.30

# value of pIC50, glutaminase (GAC) (Homo sapiens, UniProt O94925), item "O=C(Nc1nnc([C@H]2CC[C@H](c3nnc(NC(=O)[C@H](O)c4ccccc4)s3)C2)s1)[C@H](O)c1ccccc1" = > 7.00

# value of pIC50, glutaminase (GAC) (Homo sapiens, UniProt O94925), item O=C(Cc1ccccn1)Nc1ccc([C@@H]2CCC[C@@H](c3ccc(NC(=O)Cc4ccccn4)nn3)C2)nn1 (racemic) = > 7.00

# value of pIC50, glutaminase (GAC) (Homo sapiens, UniProt O94925), item "N#Cc1ccc(CC(=O)Nc2nnc([C@H]3CCC[C@H](c4nnc(NC(=O)Cc5ccc(C#N)cc5)s4)C3)s2)cc1" = 6.30 to 7.00

---

pIC50: −log10 of the molar value.
Values of pIC50 for UniProtKB O94925, collected from a number of published sources:

Answered cases to consult:
>  <MOLECULE>
CS(=O)(=O)c1ccc(CC(=O)Nc2nnc([C@H]3CCC[C@H](c4nnc(NC(=O)Cc5ccc(S(C)(=O)=O)cc5)s4)C3)s2)cc1

>  <REPORTED_ENDPOINT>
pIC50

>  <RESULT>
> 7.00

$$$$
>  <MOLECULE>
O=C(Cc1ccccn1)Nc1nnc(CCCCCc2nnc(NC(=O)Cc3ccccn3)s2)s1

>  <REPORTED_ENDPOINT>
pIC50

>  <RESULT>
6.30 to 7.00

$$$$
>  <MOLECULE>
O=C(CCc1nnc(NC(=O)Cc2ccccn2)s1)CCc1nnc(NC(=O)Cc2ccccn2)s1

>  <REPORTED_ENDPOINT>
pIC50

>  <RESULT>
6.00 to 6.30

$$$$
>  <MOLECULE>
CCOC(=O)CCCC(=O)Nc1nnc(CCCCc2nnc(NC(=O)CCCC(=O)OCC)s2)s1

>  <REPORTED_ENDPOINT>
pIC50

>  <RESULT>
6.30 to 7.00

$$$$
>  <MOLECULE>
CN(C)c1cccc(CC(=O)Nc2nnc([C@H]3CC[C@H](c4nnc(NC(=O)Cc5cccc(N(C)C)c5)s4)C3)s2)c1

>  <REPORTED_ENDPOINT>
pIC50

>  <RESULT>
> 7.00

$$$$
>  <MOLECULE>
O=C(Cc1cccc(OC(F)(F)F)c1)Nc1nnc([C@H]2CCC[C@H](c3nnc(NC(=O)[C@H](O)c4ccccc4)s3)C2)s1

>  <REPORTED_ENDPOINT>
pIC50

>  <RESULT>
> 7.00

$$$$

# next molecule below
pIC50 for N#Cc1cccc(CC(=O)Nc2nnc(C3CCC(c4nnc(NC(=O)Cc5cccc(C#N)c5)s4)C3)s2)c1 (stereo not shown) is 6.30 to 7.00

---

Values of IC50 for glutaminase (GAC) (Homo sapiens, UniProt O94925), collected from a number of published sources:

Answered cases to consult:
>  <MOLECULE>
N#Cc1cccc(CC(=O)Nc2nnc(C3CCCCC(c4nnc(NC(=O)Cc5cccc(C#N)c5)s4)C3)s2)c1 (stereo not shown)

>  <RESULT>
1000 to 2000 nM

$$$$
>  <MOLECULE>
COc1nc(CC(=O)Nc2nnc([C@H]3CCC[C@H](c4nnc(NC(=O)Cc5csc(OC)n5)s4)C3)s2)cs1

>  <RESULT>
< 100 nM

$$$$
>  <MOLECULE>
O=C(Cc1c[nH]c2ccccc12)Nc1nnc([C@@H]2CCC[C@H](c3nnc(NC(=O)Cc4c[nH]c5ccccc45)s3)C2)s1

>  <RESULT>
100 to 500 nM

$$$$
>  <MOLECULE>
O=C(Cc1ccccn1)Nc1nnc(CC[S+]([O-])CCc2nnc(NC(=O)Cc3ccccn3)s2)s1

>  <RESULT>
100 to 500 nM

$$$$
>  <MOLECULE>
O=C(Cc1cc(OC(F)F)ccn1)Nc1nnc([C@H]2CCC[C@H](c3nnc(NC(=O)Cc4cc(OC(F)F)ccn4)s3)C2)s1

>  <RESULT>
< 100 nM

$$$$

IC50 for "CC(=O)CCCCC(=O)Nc1nnc(CCCCc2nnc(NC(=O)CCCCC(C)=O)s2)s1" is 100 to 500 nM

IC50 for "CNc1nc(CC(=O)Nc2nnc([C@H]3CCC[C@H](c4nnc(NC(=O)Cc5csc(NC)n5)s4)C3)s2)cs1" is < 100 nM
